B1: IKZF1 (parent)
chain: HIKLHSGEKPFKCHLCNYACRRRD

Variants of: B1
Assay: protein stability index of a GFP-peptide fusion (GPS, HEK-293T) (PSI 1-6); higher = more stable;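 note: lentivirally expressed fusions sorted by FACS into six bins by GFP to DsRed ratio, PSI derived from sequencing read proportions per bin multiplied by bin number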
Conditions: c terminus: a fixed tail appended
Classify by measured protein stability index: Criterion met if it is equal to or exceeds 2, Criterion not met if it is smaller.

{"var": "R21L", "qualitativeLabel": "Criterion not met"}
{"var": "C20Y", "qualitativeLabel": "Criterion not met"}
{"var": "C13L", "qualitativeLabel": "Criterion not met"}
{"var": "K9I", "qualitativeLabel": "Criterion met"}
{"var": "L15Q", "qualitativeLabel": "Criterion met"}
{"var": "G7Q", "qualitativeLabel": "Criterion met"}
{"var": "K9P", "qualitativeLabel": "Criterion not met"}
{"var": "L15H", "qualitativeLabel": "Criterion met"}
{"var": "H5K", "qualitativeLabel": "Criterion met"}
{"var": "C13M", "qualitativeLabel": "Criterion met"}
{"var": "L4Q", "qualitativeLabel": "Criterion met"}
{"var": "E8F", "qualitativeLabel": "Criterion not met"}
{"var": "N17R", "qualitativeLabel": "Criterion not met"}
{"var": "P10F", "qualitativeLabel": "Criterion not met"}
